The measurements presented in this section are drawn from paper PMC9820559.

- subject.of.test: T1, RSV N-RNA complex (full-length N protein in ring-shaped complexes with bacterial RNA) (human respiratory syncytial virus, UniProt P03418 1-391)
- T1 construct: human RSV nucleoprotein N, full length; concentrations are of N protomer; also called N-RNA rings; source: in lysate for the co-purification; purified (glutathione-Sepharose, thrombin, Superdex 200) as N-RNA complex; copies: 10-11
- T1 sequence (looked up): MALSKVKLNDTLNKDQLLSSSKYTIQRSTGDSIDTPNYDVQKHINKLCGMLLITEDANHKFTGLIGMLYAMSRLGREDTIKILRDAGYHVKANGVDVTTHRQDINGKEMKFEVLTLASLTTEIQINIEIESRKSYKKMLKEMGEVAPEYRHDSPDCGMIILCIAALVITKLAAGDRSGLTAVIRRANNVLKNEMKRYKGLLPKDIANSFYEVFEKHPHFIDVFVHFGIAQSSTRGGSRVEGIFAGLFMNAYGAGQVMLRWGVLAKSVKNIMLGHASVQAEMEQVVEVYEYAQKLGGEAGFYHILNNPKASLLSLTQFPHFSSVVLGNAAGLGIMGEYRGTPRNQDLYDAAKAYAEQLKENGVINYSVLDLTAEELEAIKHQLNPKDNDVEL
- procedure.summary: fluorescence polarisation; competition: unlabeled P peptide varied against 200 nM F11 on 10 µM N-RNA; Tris pH 8 without salt; Hill equation; Ki from the IC50-to-Ki server
- assay.conditions: both partners purified
The following binders are listed with their measured IC50 values.
Write down the numeric answer in µM and omit the unit.

Known results for binders:
DEDNDLELEDF (unlabeled peptide from which F_(11EE) was made; C-terminal 11 residues of RSV phosphoprotein P; source: synthetic peptide (Fmoc/tBu solid phase, RP-HPLC purified)) [P_(11EE) (unlabeled RSV P 11-mer, Ser232Glu/Ser237Glu)]; 22
DNDLELEDF (unlabeled peptide from which F9E was made; C-terminal 9 residues of RSV phosphoprotein P; source: synthetic peptide (Fmoc/tBu solid phase, RP-HPLC purified)) [P9E (unlabeled RSV P 9-mer, Ser237Glu)]; 66
DSDNDLSLEDF (unlabeled peptide from which F11 was made; C-terminal 11 residues of RSV phosphoprotein P; also called P_(11SS); source: bought: GeneCust (synthetic peptide, >95% purity)) [P11 (unlabeled RSV P C-terminal 11-mer)]; 86

Please give the documented IC50 of DLELEDF (unlabeled peptide from which F7E was made; C-terminal 7 residues of RSV phosphoprotein P; source: synthetic peptide (Fmoc/tBu solid phase, RP-HPLC purified)) [P7E (unlabeled RSV P 7-mer, Ser237Glu)]
180
